- ASSAY_SYSTEM: CDK3/Cyclin E (Homo sapiens, UniProt Q00526)
- Sequence (P24864 whole entry): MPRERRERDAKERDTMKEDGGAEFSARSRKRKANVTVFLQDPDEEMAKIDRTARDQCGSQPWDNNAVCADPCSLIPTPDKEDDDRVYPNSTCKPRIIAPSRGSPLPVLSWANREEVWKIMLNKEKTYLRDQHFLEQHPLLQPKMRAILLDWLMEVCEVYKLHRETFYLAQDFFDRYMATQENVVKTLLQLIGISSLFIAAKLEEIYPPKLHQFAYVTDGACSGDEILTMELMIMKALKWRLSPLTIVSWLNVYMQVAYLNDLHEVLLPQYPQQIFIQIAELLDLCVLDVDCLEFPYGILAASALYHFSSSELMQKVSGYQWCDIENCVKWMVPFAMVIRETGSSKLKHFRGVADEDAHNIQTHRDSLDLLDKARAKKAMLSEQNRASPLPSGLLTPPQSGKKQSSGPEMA
- Sequence (Q00526 whole entry): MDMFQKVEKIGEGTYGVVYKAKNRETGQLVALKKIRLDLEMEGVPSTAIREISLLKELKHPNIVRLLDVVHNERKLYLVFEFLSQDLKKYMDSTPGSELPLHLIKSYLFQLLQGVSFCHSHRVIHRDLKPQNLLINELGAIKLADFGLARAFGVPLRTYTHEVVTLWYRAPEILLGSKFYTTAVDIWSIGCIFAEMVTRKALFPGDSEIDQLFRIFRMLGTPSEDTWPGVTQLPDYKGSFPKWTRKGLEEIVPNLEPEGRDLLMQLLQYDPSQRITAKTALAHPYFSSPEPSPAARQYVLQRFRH
- METHOD_SUMMARY: Inhibition of CDK3/Cyclin E (unknown origin)
PARAMETER: IC50 (nM)
Only the number, expressed in nM, is required.

Prompt: Reported IC50, molecule NC1=NC(=O)/C(=C2\CCNC(=O)c3[nH]c(Br)cc32)N1 : ____
Completion: 100
